Data provenance is patent US20200031927A1.

Target: T1, soluble KIR3DL1*001-Fc (human, UniProt P43629 22-340)
T1 construct: also called KIR3DL1 allele 001; KIR3DL1 allele-001 antigen; not shown: Fc domain
Assay: SPR (BIACORE T-100)
Metric Name: Kd (nM)
Answers are plain numbers, in nM.

Request: # get_value(readout='Kd', item= ET160-74 (antibody, human IgG1, V domains shown, Tested as human IgG1 (hIgG1), lambda light chain) VH: QVQLVQSGAEVKKPGSSVKVSCKASGGTFSSYAISWVRQAPGQGLEWMGWMNPNSGNTGYAQKFQGRVTMTRNTSISTAYMELSSLRSEDTAVYYCARYSFHLDGWGQGTLVTVSS VL: QSVLTQPPSVSAAPGQKVTISCSGSSSNVGNNYVSWYQQVPGTAPKLLIYDNNRRPSGIPDRFSGSKSGTSATLGITGLQTGDEADYYCGTWDNSLRVELFGGGTKVTVLG )
Result: 11.9
